Recorded growth by entry
# Test system: TK-10 renal
# assay_info: NCI-60 one-dose screen, 48 h (100 = growth as untreated, 0 = no growth, -100 = all killed)
# run_parameters: 10 µM unless noted
The panel holds about 83,000 compounds, 20% with a hit somewhere; the sample as a whole holds those more often.
Expressed in %, but write only the number.

Examples with their reported growth follow.
1) CCN1C(=O)N(CC)C2C1NN=C1SC(c3ccccc3)=CC(=O)N12 (stereo not given) = 62.8
2) CS(=O)(=O)c1ccc2c(c1)c1c(n2C(=O)c2ccc(Cl)cc2)CCCC1 = 67.6
3) COc1ccc(NS(=O)(=O)c2ccc(-c3cnc(C4CC4)o3)cc2)cc1Cl = 69

// Input: C#C[C@]1(O)CC[C@H]2[C@@H]3CC=C4c5sc(Nc6cc(OC)ccc6OC)nc5CC[C@]4(C)[C@H]3CC[C@@]21C . Output its growth only.
84.7

// Input: Clc1ccc(-c2csc(Nc3cccc(Nc4csc(-c5ccc(Cl)cc5)n4)c3)n2)cc1 . Output its growth only.
98.2

----------
# Tested on: MOLT-4 leukemia
# assay_info: NCI-60 one-dose screen, 48 h
# run_parameters: 10 µM unless noted
About 83,000 compounds went through this panel and 20% of them were active in at least one assay; those are over-represented in the sample as a whole. Active and inactive are the calls of the source. The calls were made as follows: active = growth percent below 10; inactive = the rest.
Lab note: assign the record to one of label 1 for active, label 0 for inactive

1) O=C(/C=C/c1cn(-c2ccccc2)nc1-c1ccc(Cl)cc1)c1cc2ccccc2oc1=O = label 0

Kindly consider the entry below.
Fill in: this test's call for CC1COc2c(N3CCN(C)CC3)c(F)cc3c(=O)c(C(=O)N/N=C/c4cc[nH]c4)cn1c23 (configuration not stated) is ___
label 1

----------
# Tested on: NCI-H460 lung
# assay_info: NCI-60 one-dose screen, 48 h (100 = growth as untreated, 0 = no growth, -100 = all killed)
# run_parameters: 10 µM unless noted
This is part of a sample that, as a whole, favours compounds with a hit. Of some 83,000 tested, about 20% had one in any assay.
Recorded growth by entry
Expressed in %, but write only the number.

1. CNC(=O)c1cc(Oc2ccc3nc(NC(=O)c4ccc(CN5CCN(C)CC5)c(C(F)(F)F)c4)sc3c2)ccn1 = 53.2

// Input: O=C1c2c(c3c4ccc(Br)cc4oc3c3[nH]c4ccccc4c23)C(=O)N1CCO . Output its growth only.
3.9

// Input: CN1CCN(c2ccc(C(=O)Nc3cccc(-c4cn(-c5ccc(S(N)(=O)=O)cc5)nn4)c3)cc2C(F)(F)F)CC1 . Output its growth only.
78.8

----------
# Tested on: SK-OV-3 ovarian
# assay_info: NCI-60 one-dose screen, 48 h (100 = growth as untreated, 0 = no growth, -100 = all killed)
# run_parameters: 10 µM unless noted
About 83,000 compounds went through this panel and 20% of them were active in at least one assay; those are over-represented in the sample as a whole.
measurement_kind: growth (%)
Expressed in %, but write only the number.

1) COc1ccccc1/C=C/C(=O)c1nnn(-c2ccc(C(=O)O)cc2)c1C = 106
2) C/C(Cc1ccc(Cl)cc1)=C(/c1ccccc1)c1ccc(OCCN)cc1 = 117
3) COc1ccc(-c2cc(-c3cccc4ccccc34)n3c(n2)nc2ccccc23)cc1 = 58.4

// Input: Cn1cc(-c2nnc(N)nc2-c2cn(C)c3ccc(F)cc23)c2cc(F)ccc21 . Output its growth only.
112

// Input: Cc1ccccc1NC1CC(=O)N(c2ccc(Cl)cc2Cl)C1=O (centres undefined) . Output its growth only.
108

// Input: Cc1ccc(-c2cc(-c3cccc4ccccc34)n3c(n2)nc2ccccc23)cc1 . Output its growth only.
100

// Input: COc1ccc(N)cc1C(=O)Nc1cccc(-c2cc(=O)c3c(OC)c(OC)c(OC)cc3o2)c1 . Output its growth only.
119

// Input: O=C(c1ccc(O)cc1)[C@@H]1[C@@H]2CCCN2[C@@]2(C(=O)N(C(=O)c3ccc(F)cc3)c3ccccc32)[C@H]1c1ccc(F)cc1 . Output its growth only.
104

// Input: NC(=O)N1N=C(c2cc3ccccc3oc2=O)CC1c1cn(-c2ccccc2)nc1-c1ccc(Cl)cc1 (centres undefined) . Output its growth only.
75.6

----------
Recorded growth by entry
# Test system: HT29 colon
# assay_info: NCI-60 one-dose screen, 48 h (100 = growth as untreated, 0 = no growth, -100 = all killed)
# run_parameters: 10 µM unless noted
Compounds without any hit were thinned out: in the full panel of roughly 83,000, 20% have a hit.
Expressed in %, but write only the number.

Examples with their reported growth follow.
1) C#C[C@]1(O)CC[C@H]2[C@@H]3CC=C4c5sc(-c6cccc(F)c6)nc5CC[C@]4(C)[C@H]3CC[C@@]21C = 78.4
2) COc1cccc(/C=C/C(=O)c2ccc(NC(=O)COc3cccc4cccnc34)cc2)c1 = 98.2
3) C=CCn1c(SCC(=O)Nc2ccc(OC)cc2)nnc1-c1ccc(Cl)cc1 = 105
4) O=S(=O)(Nc1ccc(-c2nc(-c3cccc(O)c3)c(-c3ccnc(Br)c3)[nH]2)cc1)c1ccccc1 = 31.8
5) COc1ccc(CCN2C(=O)/C(=C/c3nc(CO)cs3)SC2=S)cc1 = 103

// Input: CCc1ccc(NC(=O)N[C@@H](Cc2cccc(F)c2)C(=O)N[C@@H]2C(=O)N3CCC[C@H]3C(=O)N3CCCC[C@H]3C(=O)N[C@@H](CO)C(=O)N3C[C@H](C)C[C@H]3C(=O)O[C@H]2C)c(F)c1 . Output its growth only.
36.1

// Input: O=c1[nH]c(CCl)nc2c1cnn2-c1ccccc1 . Output its growth only.
115

// Input: CS(=O)c1nccc(-c2c(-c3ccc(F)c(OCCc4ccc(F)cc4)c3)nc3sccn23)n1 (stereo not drawn) . Output its growth only.
7.84

----------
# System: UACC-257 melanoma
# assay_info: NCI-60 one-dose screen, 48 h (100 = growth as untreated, 0 = no growth, -100 = all killed)
# run_parameters: 10 µM
This is part of a sample that, as a whole, favours compounds with a hit. Of some 83,000 tested, about 20% had one in any assay. Activity calls are given as the source filed them. Rule for the calls: active = growth percent below 10; inactive = the rest.
measurement_kind: growth

1) Cc1ccc(Cc2cnc(NC(=O)/C(C#N)=C/c3ccc(-c4ccc(Cl)cc4)o3)s2)cc1 = 100% (inactive)
2) CCN1CCN(c2cc(C(=O)Nc3nc4ccc(Oc5ccnc(C(=O)NC)c5)cc4s3)cc(C(F)(F)F)c2)CC1 = 94.2% (inactive)
3) CC(=O)c1sc(Nc2cccc(Nc3nc(C)c(C)s3)c2)nc1C = 88.7% (inactive)
4) O=c1[nH]c(CCl)nc2c1cnn2-c1ccccc1 = 96.2% (inactive)

Now let's try a different one.
// Input: C=C1C(=O)O[C@@H]2C[C@@H](C)/C=C\C(=O)[C@](C)(OC(C)=O)C[C@H](OC(=O)/C(C)=C\C)[C@@H]12 . Output its growth only.
-76.1% (active)

----------
# System: U251 CNS
# assay_info: NCI-60 one-dose screen, 48 h (100 = growth as untreated, 0 = no growth, -100 = all killed)
# run_parameters: 10 µM unless noted
# Experimental: Growth inhibition of the U251 human tumor cell line is measured as a screen for anti-cancer activity. Cells are grown in 96 well plates and exposed to the test compound for 48 hours. Compounds are tested at a single concentration, which is 10^-5 M for most compounds. The reported endpoint is percent growth (GI% or GIPRCNT), where numbers from 0 - 100% represent growth inhibition, and numbers from -100% - 0 represent cell death. For example, a value of 40 represents 60% growth inhibition. […]
About 83,000 compounds went through this panel and 20% of them were active in at least one assay; those are over-represented in the sample as a whole.
measurement_kind: growth (%)
Expressed in %, but write only the number.

Examples with their reported growth follow.
1. CCn1c2ccc(/C=N/NS(=O)(=O)CCN(C)C)cc2c2cc(/C=N/NS(=O)(=O)CCN(C)C)ccc21 = 99.8
2. Cc1ccccc1/C=C/c1nn2c(-c3ccoc3C)nnc2s1 = 97.6
3. CC1(C)CC[C@]2(C(=O)N3CCCNCC3)CC[C@]3(C)C(=CC[C@@H]4[C@@]5(C)CCC(=O)C(C)(C)[C@@H]5CC[C@]43C)[C@H]2C1 = 100
4. Cc1ccc(-c2cc(-c3ccc(N(C)C)cc3)n3c(n2)nc2ccccc23)cc1 = 56.7
5. COc1ccc(-c2oc3cc(O)cc(O)c3c(=O)c2OC)cc1O = 15.6

Give growth for COc1ccc(/C=N\NC(=O)c2ccc3nc(-c4ccc(Br)cc4)[nH]c3c2)cc1 tested on U251 CNS.
-51.5

Give growth for N/C(=N\OC(=O)CSc1nc2ccccc2s1)c1ccc(Cl)cc1 tested on U251 CNS.
96.8

Give growth for N#Cc1c(NC(=O)c2ccc(F)c(Cl)c2)sc2c1CCC(=O)C2 tested on U251 CNS.
11.6

Give growth for CC(C)=CCC[C@](C)(O)[C@H]1CC[C@]2(C)[C@@H]1CC[C@@H]1[C@@]3(C)CCC(NC(=O)c4ccccc4C(=O)O)C(C)(C)[C@@H]3CC[C@]12C (some centres undefined) tested on U251 CNS.
88.6
